- Assay Explanation: p53 small molecule agonists, cell-based qHTS assay: qHTS cell viability counter screen (AID 1963581); note: nearly all actives have a fitted effect of over 45% in size
- Run Parameters: p53RE-bla HCT-116 viability, ATP luminescence, 16 h; series mostly up to 66 µM
Records with an inconclusive call do not appear. The source made the active and inactive calls. Calls come from the whole dose curve.
Classes used: 1 (yes) (active), 0 (no) (inactive)

> print(dat)
                                    molecule    class
 1              CC(=O)[O-].CC(=O)[O-].[Hg+2]  1 (yes)
 2      CN(C)S(=O)(=O)N(SC(F)(Cl)Cl)c1ccccc1   0 (no)
 3             OCC(c1ccc(Cl)cc1)c1ccc(Cl)cc1   0 (no)
 4           Cc1cc(OC(=O)N(C)C)nn1C(=O)N(C)C   0 (no)
 5  C[C@]12C/C(=C/O)C(=O)C[C@@H]1CC[C@@H]1[C@@H]2CC[C@@]2(C)[C@H]1CC[C@]2(C)O  1 (yes)
 6                     CCSC(=O)N(CC)C1CCCCC1   0 (no)
 7  O=C(NC(O)C(Cl)(Cl)Cl)NC(O)C(Cl)(Cl)Cl (centres undefined)   0 (no)
 8  OC(c1ccc(Cl)cc1)(c1ccc(Cl)cc1)C(Cl)(Cl)Cl   0 (no)
 9  CCCN(CC)CC1COC2(CCC(C(C)(C)C)CC2)O1 (centres undefined)   0 (no)
10  CCC(COC(=O)c1cc(OC)c(OC)c(OC)c1)(c1ccccc1)N(C)C (centres undefined)   0 (no)
11  O=C1C[C@@H]2OCC=C3CN4CC[C@]56c7ccccc7N1[C@H]5[C@H]2[C@H]3C[C@H]46   0 (no)
12                       CCCCOC(=O)c1ccccc1N   0 (no)
13                    O=S(=O)(O)c1cc(O)ccc1O   0 (no)
14  C=CC(=O)[O][Sn]([CH2]CCC)([CH2]CCC)[CH2]CCC  1 (yes)
15  CC(C)O.CC(C)O.OCCN(CCO)CCO.OCCN(CCO)CCO.[Ti]   0 (no)
16  CCNP(=S)(OC)O/C(C)=C/C(=O)OC(C)C (centres undefined)   0 (no)
17                            C=CC(=O)OCCCCO   0 (no)
18  C[C@H](CN1CCOCC1)C(C(=O)N1CCCC1)(c1ccccc1)c1ccccc1   0 (no)
19  C[C@]12CC[C@H]3[C@@H](CCC4=CC(=O)CC[C@@]43C)[C@@H]1CC[C@@H]2O   0 (no)
20  CC(C)(C)c1cc([N+](=O)[O-])cc(C(C)(C)C)c1O   0 (no)
21  C[C@]12CC[C@@H]3c4ccc(OC(=O)N(CCCl)CCCl)cc4CC[C@H]3[C@@H]1CC[C@@H]2O   0 (no)
22                   COC(=O)COc1ccc(Cl)cc1Cl   0 (no)
23                                 Cc1ccccc1   0 (no)
24  CCN(CC)C(=S)[S-].CCN(CC)C(=S)[S-].[Zn+2]  1 (yes)

###

- Assay Explanation: p53 small molecule agonists, cell-based qHTS assay (AID 1963582); for activation: % is set by controls: 0 for no effect and ±100 for the full control effect
- Run Parameters: HCT-116 p53RE-bla reporter, beta-lactamase FRET ratio, 16 h; series mostly up to 66 µM
Records with an inconclusive call do not appear. Activity calls are given as the source filed them. Calls come from the whole dose curve; as a rule, active = well fitted activation curve with a large enough effect in the signal ratio in the repeat runs (not every such curve was filed as active); inconclusive = weak or mixed curves; inactive = flat fitted curve, though single readings scatter; the % refers to the signal ratio.
Classes used: 1 (yes) for active, 0 (no) for inactive

> print(dat)
                                    molecule    class
 1                         [O-][Br+2]([O-])O   0 (no)
 2                        CCCCCC[N+](=O)[O-]   0 (no)
 3    COc1cccc([C@@]2(O)CCCC[C@@H]2CN(C)C)c1   0 (no)
 4                               C=CCOC(C)=O   0 (no)
 5                      CCc1ccc(C2CCNCC2)cc1   0 (no)
 6  CCCN(CCCl)c1c([N+](=O)[O-])cc(C(F)(F)F)cc1[N+](=O)[O-]   0 (no)
 7      c1ccc(OCC2CO2)cc1 (stereo not drawn)   0 (no)
 8             CNC(=O)Oc1cc(C)c(N(C)C)c(C)c1   0 (no)
 9                     Clc1ccc(Oc2ccccc2)cc1   0 (no)
10                           CCCCc1ccc(O)cc1   0 (no)
11      CN(C)S(=O)(=O)N(SC(F)(Cl)Cl)c1ccccc1   0 (no)
12                           O=c1ssc(Cl)c1Cl   0 (no)
13                      CCSCc1ccccc1OC(=O)NC   0 (no)
14                                CCSC(=O)Cl   0 (no)
15  CN1[C@@H]2CC[C@H]1CC(O)C2 (stereo partly drawn)   0 (no)
16  CN(C)C(=O)Oc1cc(OC(=O)N(C)C)cc(C(O)CNC(C)(C)C)c1 (stereo not drawn)   0 (no)
17              CC(C)COP(=O)(OCC(C)C)OCC(C)C   0 (no)
18            OC(c1ccccc1)(c1ccccc1)C1CCNCC1   0 (no)
19                   CCOc1nc(C(Cl)(Cl)Cl)ns1   0 (no)
20             CCS(=O)(=O)C(C)(C)S(=O)(=O)CC   0 (no)
21                CNC(=O)Oc1cccc(N=CN(C)C)c1   0 (no)
22  CNP(=O)(OC)Oc1ccc(C(C)(C)C)cc1Cl (stereo not drawn)   0 (no)
23                         O=C(O)/C=C\C(=O)O   0 (no)
24  CC[C@H]1C[C@@H]2C[C@H]3c4[nH]c5ccc(OC)cc5c4CCN(C2)[C@@H]13   0 (no)
25            COC(=O)C1(O)c2ccccc2-c2ccccc21   0 (no)
26  COc1ccc(/C(=C/C(=O)N2CCOCC2)c2ccc(Cl)cc2)cc1OC   0 (no)
27    CCOC(=O)c1cn2nc(OP(=S)(OCC)OCC)cc2nc1C   0 (no)
28  O=CNC(N1CCN(C(NC=O)C(Cl)(Cl)Cl)CC1)C(Cl)(Cl)Cl (stereo not drawn)   0 (no)
29  O=C1CN2CCOC2(c2ccccc2Cl)c2cc(Cl)ccc2N1 (stereo not drawn)   0 (no)
30                           NNC(=O)c1cccnc1   0 (no)
31                                  C1CCNCC1   0 (no)
32  CC(C)C1CCC(Cc2ccc(Cl)cc2)C1(O)Cn1cncn1 (stereo not drawn)   0 (no)
33                      CC(=O)CN(CC(C)=O)N=O   0 (no)
34  CCC1COC(Cn2cncn2)(c2ccc(Cl)cc2Cl)O1 (stereo not drawn)   0 (no)
35  O=C1C[C@@H]2OCC=C3CN4CC[C@]56c7ccccc7N1[C@H]5[C@H]2[C@H]3C[C@H]46   0 (no)
36                            C#CC1(O)CCCCC1   0 (no)
37            COP(=O)(OC)O/C(C)=C/C(=O)N(C)C   0 (no)
38  CC1=C2C[C@H]3[C@@H](CC=C4C[C@@H](O)CC[C@@]43C)[C@@H]2CC[C@]12O[C@@H]1C[C@H](C)CN[C@H]1[C@H]2C   0 (no)
39                                  [O]=[Cd]   0 (no)
40  CCN(CC)C(=O)N[C@@H]1C=C2c3cccc4[nH]cc(c34)C[C@@H]2N(C)C1   0 (no)
41  CCN(CCO)CCn1c(Cc2ccccc2)nc2c1c(=O)n(C)c(=O)n2C   0 (no)
42  COc1cc(C=O)cc2c1[C@H](COC(N)=O)[C@]1(OC(C)=O)ON2C[C@H]2[C@@H]1N2C(C)=O  1 (yes)
43                                  BrCCCCBr   0 (no)
44     CCN(CC)CCOC(=O)C(C)(c1ccccc1)c1ccccc1   0 (no)
45  CCOc1ccc(C(C)(C)COCc2cccc(Oc3ccccc3)c2)cc1   0 (no)
46     COP(=S)(OC)Oc1ccc([N+](=O)[O-])c(C)c1   0 (no)
47  CC(C)[C@H](C(=O)OC(C#N)c1cccc(Oc2ccccc2)c1)c1ccc(OC(F)F)cc1 (stereo partly drawn)   0 (no)
48  CN1C2CCC(C)(C)C1CC(OC(=O)C(O)(c1cccs1)c1cccs1)C2 (stereo not drawn)   0 (no)
49  Cc1cc(C)cc(OP(=O)(Oc2cc(C)cc(C)c2)Oc2cc(C)cc(C)c2)c1   0 (no)
50                          O=C(Cl)c1ccccc1F   0 (no)
51                        COc1ccccc1N1CCNCC1   0 (no)
52                                 C=C(Cl)Cl   0 (no)
53                        CNC(=O)O/N=C(\C)SC   0 (no)
